system: SK-MEL-5 melanoma; assay: NCI-60 one-dose screen, 48 h (100 = growth as untreated, 0 = no growth, -100 = all killed); settings: 10 µM unless noted
The panel holds about 83,000 compounds, 20% with a hit somewhere; the sample as a whole holds those more often.
Each record gets a class by growth: LOW (below 20%), MID (20% to below 90%), HIGH (90% or more)

[in] Could you place COc1ccc(C2NC(=O)c3cc4c(cc3N2)OCO4)cc1 (stereo unspecified) in its proper category? Many thanks.
[out] LOW

[in] O=C(O)CSc1ccc(NCc2oc(CO)cc(=O)c2O)cc1 ?
[out] HIGH

[in] CC(C)(C)OC(=O)N1CCCN(CCNc2nccc(-c3c(-c4cccc(O)c4)nc4sccn34)n2)S1(=O)=O ?
[out] MID

[in] c1ccc(-c2nnn(-c3ccccc3)n2)cc1 ?
[out] HIGH

[in] CCN(CC)CCCCCCCCNc1c2ccc(Cl)cc2nc2ccc(OC)cc12 ?
[out] LOW

[in] CN(C)c1nc(-c2cccs2)n2nc(-c3ccco3)cc2n1 ?
[out] HIGH

[in] CC(C)(c1ccccc1)c1cc(O)c(C(C)(C)c2ccccc2)cc1O ?
[out] LOW

[in] O=C1SCN(Cc2ccccc2)CN1Cc1ccccc1 ?
[out] HIGH

[in] CCOC(=O)Cn1c(-c2nonc2NC(=O)c2ccccc2F)nc2ccccc21 ?
[out] MID
